Tested on: 855422-203-R-J1-PDC complex spheroid viability
Assay: Anticancer human tumor 855422-203-R-J1-PDC patient-derived bladder carcinoma cell line growth inhibition
Settings: second compound 0.316 µM; first compound 0.000316 µM; active compounds read low
Description: Multicellular complex tumor spheroid response to LSD1 Inhibitor Iadademstat in combination with a variety of drugs and investigational agents in selected tumor cell lines The current study was undertaken to assess response to LSD1 inhibitors in combination with standard-of-care drugs and investigational agents in solid tumor complex spheroid models as well as in the K-562 leukemia. […] Compounds. […] If the clinical Cmax for an agent had not been determined, the highest concentration tested was 10 microM. […]
Exercise: state measured viability, T/C for each of the molecules provided.
Use % as the unit, but write only the number.

// query Could you tell me which viability, T/C is on file for Cn1ncnc1C1c2n[nH]c(=O)c3cc(F)cc(c23)NC1c1ccc(F)cc1 (stereo not drawn) + NC1CCC(NC2CC2c2ccccc2)CC1 ?
// result 90

// query Could you tell me which viability, T/C is on file for CC(C)CC(NC(=O)C(Cc1ccccc1)NC(=O)c1cnccn1)B(O)O (stereo not drawn) + NC1CCC(NC2CC2c2ccccc2)CC1 ?
// result 67.2

// query Could you tell me which viability, T/C is on file for CC(C)CC(NC(=O)C(Cc1ccccc1)NC(=O)c1cnccn1)B(O)O (stereo not drawn) + NC1CC1c1ccc(-c2cccc(O)c2)cc1 ?
// result 122

// query Could you tell me which viability, T/C is on file for CC[C@@]1(O)C(=O)OCc2c1cc1n(c2=O)Cc2cc3c(CN(C)C)c(O)ccc3nc2-1 + NC1CCC(NC2CC2c2ccccc2)CC1 ?
// result 90.9

// query Could you tell me which viability, T/C is on file for Cn1ncnc1C1c2n[nH]c(=O)c3cc(F)cc(c23)NC1c1ccc(F)cc1 (stereo not drawn) + NC1CC1c1ccc(-c2cccc(O)c2)cc1 ?
// result 89.2

// query Could you tell me which viability, T/C is on file for CC[C@@]1(O)C(=O)OCc2c1cc1n(c2=O)Cc2cc3c(CN(C)C)c(O)ccc3nc2-1 + NC1CC1c1ccc(-c2cccc(O)c2)cc1 ?
// result 98.9

// query Could you tell me which viability, T/C is on file for CC(C)CC(NC(=O)CNC(=O)c1cc(Cl)ccc1Cl)B1OC(=O)CC(CC(=O)O)(C(=O)O)O1 (stereo not drawn) + NC1CCC(NC2CC2c2ccccc2)CC1 ?
// result 100

// query Could you tell me which viability, T/C is on file for CC(C)CC(NC(=O)CNC(=O)c1cc(Cl)ccc1Cl)B1OC(=O)CC(CC(=O)O)(C(=O)O)O1 (stereo not drawn) + NC1CC1c1ccc(-c2cccc(O)c2)cc1 ?
// result 104

---

Tested on: 855422-203-R-J1-PDC complex spheroid viability
Experiment: Anticancer human tumor 855422-203-R-J1-PDC cell line growth inhibition;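 further: drug exposure lasted 7 days starting on day 3 after seeding; luminescence viability as percent of DMSO vehicle wells = 100%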
Conditions: second compound 0.316 µM; first compound 1 µM; active compounds read low
Exercise: state measured viability, T/C for each of the molecules provided.
Use % as the unit, but write only the number.

// query Could you tell me which viability, T/C is on file for CC1(C)CCC(CN2CCN(c3ccc(C(=O)NS(=O)(=O)c4ccc(NCC5CCOCC5)c([N+](=O)[O-])c4)c(Oc4cnc5[nH]ccc5c4)c3)CC2)=C(c2ccc(Cl)cc2)C1 + NC1CC1c1ccc(-c2cccc(O)c2)cc1 ?
// result 103

// query Could you tell me which viability, T/C is on file for CC(C)c1c(-c2ccccc2)nc2c(C#N)c[nH]n2c1=O + NC1CCC(NC2CC2c2ccccc2)CC1 ?
// result 83.3

// query Could you tell me which viability, T/C is on file for CC1COCCN1c1cc(C2(S(C)(=N)=O)CC2)nc(-c2ccnc3[nH]ccc23)n1 (stereo not drawn) + NC1CC1c1ccc(-c2cccc(O)c2)cc1 ?
// result 79.9

// query Could you tell me which viability, T/C is on file for CC(C)c1c(-c2ccccc2)nc2c(C#N)c[nH]n2c1=O + NC1CC1c1ccc(-c2cccc(O)c2)cc1 ?
// result 87.4

// query Could you tell me which viability, T/C is on file for COc1ccc([C@@H](O)c2cc(-c3ncnc4cc(N5CCOCC5)ccc34)c(F)cc2Cl)nn1 + NC1CCC(NC2CC2c2ccccc2)CC1 ?
// result 69.3

// query Could you tell me which viability, T/C is on file for Nc1ncn(C2CC(O)C(CO)O2)c(=O)n1 (stereo not drawn) + NC1CC1c1ccc(-c2cccc(O)c2)cc1 ?
// result 88.7

// query Could you tell me which viability, T/C is on file for CC1COCCN1c1cc(-c2ccnn2C)c2ccnc(-c3ccn[nH]3)c2n1 (stereo not drawn) + NC1CCC(NC2CC2c2ccccc2)CC1 ?
// result 33

// query Could you tell me which viability, T/C is on file for O=C(c1cc(Cc2n[nH]c(=O)c3ccccc23)ccc1F)N1CCN(C(=O)C2CC2)CC1 + NC1CC1c1ccc(-c2cccc(O)c2)cc1 ?
// result 98.4

// query Could you tell me which viability, T/C is on file for O=C(C=Cn1cnc(-c2cc(C(F)(F)F)cc(C(F)(F)F)c2)n1)NNc1cnccn1 + NC1CCC(NC2CC2c2ccccc2)CC1 ?
// result 28.1

// query Could you tell me which viability, T/C is on file for CC1COCCN1c1cc(-c2ccnn2C)c2ccnc(-c3ccn[nH]3)c2n1 (stereo not drawn) + NC1CC1c1ccc(-c2cccc(O)c2)cc1 ?
// result 31

// query Could you tell me which viability, T/C is on file for COc1ccc([C@@H](O)c2cc(-c3ncnc4cc(N5CCOCC5)ccc34)c(F)cc2Cl)nn1 + NC1CC1c1ccc(-c2cccc(O)c2)cc1 ?
// result 80.2

// query Could you tell me which viability, T/C is on file for COc1cc(Nc2ncc3c(n2)-c2ccc(Cl)cc2C(c2c(F)cccc2OC)=NC3)ccc1C(=O)O + NC1CC1c1ccc(-c2cccc(O)c2)cc1 ?
// result 44.4

// query Could you tell me which viability, T/C is on file for O=C(C=Cn1cnc(-c2cc(C(F)(F)F)cc(C(F)(F)F)c2)n1)NNc1cnccn1 + NC1CC1c1ccc(-c2cccc(O)c2)cc1 ?
// result 17.7

// query Could you tell me which viability, T/C is on file for CC1COCCN1c1cc(C2(S(C)(=N)=O)CC2)nc(-c2ccnc3[nH]ccc23)n1 (stereo not drawn) + NC1CCC(NC2CC2c2ccccc2)CC1 ?
// result 92.7

// query Could you tell me which viability, T/C is on file for Nc1ncn(C2CC(O)C(CO)O2)c(=O)n1 (stereo not drawn) + NC1CCC(NC2CC2c2ccccc2)CC1 ?
// result 84.7

// query Could you tell me which viability, T/C is on file for CC1(C)CCC(CN2CCN(c3ccc(C(=O)NS(=O)(=O)c4ccc(NCC5CCOCC5)c([N+](=O)[O-])c4)c(Oc4cnc5[nH]ccc5c4)c3)CC2)=C(c2ccc(Cl)cc2)C1 + NC1CCC(NC2CC2c2ccccc2)CC1 ?
// result 100

// query Could you tell me which viability, T/C is on file for COc1cc(Nc2ncc3c(n2)-c2ccc(Cl)cc2C(c2c(F)cccc2OC)=NC3)ccc1C(=O)O + NC1CCC(NC2CC2c2ccccc2)CC1 ?
// result 56.5

// query Could you tell me which viability, T/C is on file for O=C(c1cc(Cc2n[nH]c(=O)c3ccccc23)ccc1F)N1CCN(C(=O)C2CC2)CC1 + NC1CCC(NC2CC2c2ccccc2)CC1 ?
// result 84.6

---

System: 855422-203-R-J1-PDC complex spheroid viability
Assay: Anticancer human tumor 855422-203-R-J1-PDC cell line growth inhibition; active = viability on the fitted dose curve at most 10% of control; inactive = the rest;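 further: drug exposure lasted 7 days starting on day 3 after seeding; luminescence viability as percent of DMSO vehicle wells = 100%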
Settings: second compound 10 µM; first compound 0.0949 µM
Pick from active, inactive when you respond.

// query Given COc1cc(C2c3cc4c(cc3C(OC3OC5COC(C)OC5C(O)C3O)C3COC(=O)C23)OCO4)cc(OC)c1O (configuration not stated) + NC1CC1c1ccc(-c2cccc(O)c2)cc1 , state the outcome it received in this test.
// result inactive

// query Given Nc1ccn(C2OC(CO)C(O)C2(F)F)c(=O)n1 (configuration not stated) + NC1CCC(NC2CC2c2ccccc2)CC1 , state the outcome it received in this test.
// result inactive

// query Given O=C(C=Cc1cccc(S(=O)(=O)Nc2ccccc2)c1)NO + NC1CC1c1ccc(-c2cccc(O)c2)cc1 , state the outcome it received in this test.
// result inactive

// query Given CCc1c2c(nc3ccc(O)cc13)-c1cc3c(c(=O)n1C2)COC(=O)[C@]3(O)CC + NC1CCC(NC2CC2c2ccccc2)CC1 , state the outcome it received in this test.
// result active

// query Given Nc1ccn(C2OC(CO)C(O)C2(F)F)c(=O)n1 (configuration not stated) + NC1CC1c1ccc(-c2cccc(O)c2)cc1 , state the outcome it received in this test.
// result inactive

// query Given Nc1ncn(C2CC(O)C(CO)S2)c(=O)n1 (configuration not stated) + NC1CC1c1ccc(-c2cccc(O)c2)cc1 , state the outcome it received in this test.
// result inactive

// query Given CCN(c1cc(-c2ccc(CN3CCOCC3)cc2)cc(C(=O)NCc2c(C)cc(C)[nH]c2=O)c1C)C1CCOCC1 + NC1CCC(NC2CC2c2ccccc2)CC1 , state the outcome it received in this test.
// result inactive
